meta.source: patent US5340800A

Tested on: polymorphonuclear leukocyte adhesion to TNF activated endothelial cells
Assay type: cell-based, human
measurementSetup: 10^-6 M; average over PMN donors (# donors in parentheses)
Protocol: Leukocyte adherence can be measured using several assays known in the art, and the preferred assay is described by Charo, et al., 1985, Blood, 65:473. Briefly, the assay consists of labelling leukocytes with an appropriate label, incubating them with endothelial cells and determining the number of leukocytes that adhere. […] Leukocyte adherence to endothelial cell monolayers may be determined as follows. […]
No end group written: not given here.
endpointName: Average % Change of PMN Adhesion to TNF Activated ECs

>>> recordedvalue("SSNVVHLIKNAYNKLSS [Peptide 3-17]")
"+13%"
>>> recordedvalue("DAPEGGLDAMMQVA [Peptide 5-14]")
"+7%"
>>> recordedvalue("CRIARLEEKVKTLKAQNSELASTANMLREQVAQLKQKVMNHA [WT, reference compound]")
"+22%"
>>> recordedvalue("RIGFGSFVDKTVLPFVNTHPDKLRN [Peptide 6-25]")
"+8%"
>>> recordedvalue("RIARLKEKVKTLKAKNSELASTANMLREQVAQLKQKVMNHA [JUN-k, reference compound]")
"+3%"
